molecular target: ATR (Homo sapiens, UniProt Q13535); construct: made in house; host or cells: 293T cells, transient transfection with pBJF-FRPwt, anti-FLAG M2 immunoprecipitate; test: In vitro kinase assay, ATR with GST-peptide / GST-fusion substrates; format: biochemical; details: GST-peptide substrate; relative to the p53ser15 site
Sequence (Q13535 whole entry, the tested form may be a part): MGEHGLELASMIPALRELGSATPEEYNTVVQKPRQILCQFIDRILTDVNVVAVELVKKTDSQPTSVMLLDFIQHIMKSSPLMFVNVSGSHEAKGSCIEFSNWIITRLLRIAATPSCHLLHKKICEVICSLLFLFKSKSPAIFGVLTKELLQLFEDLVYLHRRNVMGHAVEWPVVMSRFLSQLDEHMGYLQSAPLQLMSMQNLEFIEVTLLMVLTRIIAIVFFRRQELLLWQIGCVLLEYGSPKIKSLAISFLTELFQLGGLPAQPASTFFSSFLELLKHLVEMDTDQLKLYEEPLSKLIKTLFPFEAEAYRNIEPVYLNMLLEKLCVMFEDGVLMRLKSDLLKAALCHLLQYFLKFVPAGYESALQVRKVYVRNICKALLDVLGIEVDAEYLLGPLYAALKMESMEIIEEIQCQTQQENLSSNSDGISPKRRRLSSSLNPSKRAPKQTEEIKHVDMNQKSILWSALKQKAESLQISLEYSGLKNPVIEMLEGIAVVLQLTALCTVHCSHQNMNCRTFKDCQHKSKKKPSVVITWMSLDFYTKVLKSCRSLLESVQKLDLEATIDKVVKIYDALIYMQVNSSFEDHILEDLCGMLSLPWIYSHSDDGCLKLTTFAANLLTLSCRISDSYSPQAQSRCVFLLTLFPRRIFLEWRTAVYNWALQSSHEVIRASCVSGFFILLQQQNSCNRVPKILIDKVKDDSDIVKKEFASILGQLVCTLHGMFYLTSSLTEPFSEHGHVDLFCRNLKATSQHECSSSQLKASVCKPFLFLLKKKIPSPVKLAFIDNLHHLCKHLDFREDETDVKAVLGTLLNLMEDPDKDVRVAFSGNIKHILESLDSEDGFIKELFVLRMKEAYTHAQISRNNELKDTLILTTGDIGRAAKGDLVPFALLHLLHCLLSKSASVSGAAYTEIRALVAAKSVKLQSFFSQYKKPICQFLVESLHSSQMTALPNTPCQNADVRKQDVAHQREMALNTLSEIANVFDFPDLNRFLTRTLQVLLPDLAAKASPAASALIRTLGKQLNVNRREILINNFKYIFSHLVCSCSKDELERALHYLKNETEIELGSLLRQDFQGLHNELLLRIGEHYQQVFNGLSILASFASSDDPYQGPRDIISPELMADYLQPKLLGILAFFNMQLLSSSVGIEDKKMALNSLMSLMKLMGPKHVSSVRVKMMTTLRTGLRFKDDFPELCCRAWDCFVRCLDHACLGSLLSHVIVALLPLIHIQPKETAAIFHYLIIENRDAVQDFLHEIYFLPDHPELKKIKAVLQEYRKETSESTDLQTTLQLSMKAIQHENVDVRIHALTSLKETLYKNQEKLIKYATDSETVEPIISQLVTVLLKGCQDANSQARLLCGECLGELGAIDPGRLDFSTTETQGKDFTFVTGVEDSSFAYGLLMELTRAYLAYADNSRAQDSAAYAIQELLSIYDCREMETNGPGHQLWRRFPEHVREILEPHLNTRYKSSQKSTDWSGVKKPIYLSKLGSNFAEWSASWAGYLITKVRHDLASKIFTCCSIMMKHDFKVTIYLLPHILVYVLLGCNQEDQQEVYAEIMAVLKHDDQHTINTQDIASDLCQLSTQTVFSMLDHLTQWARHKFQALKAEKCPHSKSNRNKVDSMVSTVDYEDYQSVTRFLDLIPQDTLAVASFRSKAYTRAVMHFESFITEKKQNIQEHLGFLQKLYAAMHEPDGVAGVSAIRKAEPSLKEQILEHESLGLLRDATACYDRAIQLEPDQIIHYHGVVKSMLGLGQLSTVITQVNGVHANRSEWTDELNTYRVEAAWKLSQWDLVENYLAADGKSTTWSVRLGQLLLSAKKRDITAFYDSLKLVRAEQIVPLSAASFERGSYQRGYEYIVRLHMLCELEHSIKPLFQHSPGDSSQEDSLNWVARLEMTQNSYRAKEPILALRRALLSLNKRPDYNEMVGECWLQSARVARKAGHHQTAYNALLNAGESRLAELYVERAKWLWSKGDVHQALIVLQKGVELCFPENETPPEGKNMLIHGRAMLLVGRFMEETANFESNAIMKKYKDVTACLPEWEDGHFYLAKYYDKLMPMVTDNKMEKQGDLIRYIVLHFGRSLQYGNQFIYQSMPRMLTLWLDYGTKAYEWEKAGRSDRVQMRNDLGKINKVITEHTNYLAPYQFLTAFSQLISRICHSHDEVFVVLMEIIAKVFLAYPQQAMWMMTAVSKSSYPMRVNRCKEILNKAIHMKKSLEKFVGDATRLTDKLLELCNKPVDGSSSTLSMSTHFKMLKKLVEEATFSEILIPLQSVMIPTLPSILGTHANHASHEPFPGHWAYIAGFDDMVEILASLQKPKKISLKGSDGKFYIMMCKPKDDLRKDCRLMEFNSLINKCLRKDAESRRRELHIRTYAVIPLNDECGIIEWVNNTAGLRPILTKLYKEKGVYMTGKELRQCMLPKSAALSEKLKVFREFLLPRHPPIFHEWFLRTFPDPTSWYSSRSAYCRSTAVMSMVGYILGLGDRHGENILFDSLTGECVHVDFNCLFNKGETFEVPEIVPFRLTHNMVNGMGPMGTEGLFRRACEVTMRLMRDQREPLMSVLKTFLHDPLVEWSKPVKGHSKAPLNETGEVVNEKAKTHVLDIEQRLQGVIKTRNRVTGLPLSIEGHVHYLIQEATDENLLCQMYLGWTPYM
Where no end group is shown, it is not given here.
Attribute: Relative Phosphorylation (%) ATR
readout: Relative Phosphorylation (%) ATR

substance	test-target	recorded-value
CHK1 (SQ2): GST-peptide VQGISFSQPTCPDH (SEQ ID NO:17), S345 (also: GST fusion)	ATR (Homo sapiens, UniProt Q13535)	73%
MRE11 (SQ2): GST-peptide FSVLRFSQKFVDRV (SEQ ID NO:12), S386 (also: GST fusion)	ATR (Homo sapiens, UniProt Q13535)	17%
β-ADAPTIN: GST-peptide CRAPEVSQHVYQAY (SEQ ID NO:28), S935 (not fully specified (N-terminus); also: GST fusion; listed as Homo sapiens)	ATR (Homo sapiens, UniProt Q13535)	22%

* * *

Attribute: Relative Phosphorylation (%) ATR
molecular target: ATR (Homo sapiens, UniProt Q13535); construct: made in house; host or cells: 293T cells, transient transfection with pBJF-FRPwt, anti-FLAG M2 immunoprecipitate; test: In vitro kinase assay, ATR with GST-peptide / GST-fusion substrates; format: biochemical; conditions: GST-peptide substrate; relative to the p53ser15 site
Where no end group is shown, it is not given here.
readout: Relative Phosphorylation (%) ATR

substance	test-target	readout-units	recorded-value
WRN (SQ2): GST-peptide TIGMHLSQAVKAGC (SEQ ID NO:20), S1292 (not fully specified (N-terminus); also: GST fusion; listed as Homo sapiens)	ATR (Homo sapiens, UniProt Q13535)	%	33
RPA34kD (SQ3): GST-peptide TGNVEISQVTIVGI (SEQ ID NO:42), S72 (not fully specified (N-terminus); also: GST fusion; listed as Homo sapiens)	ATR (Homo sapiens, UniProt Q13535)	%	8
RAD17 (SQ2): GST-peptide ASELPASQPQPFSA (SEQ ID NO:19), S656 (not fully specified (N-terminus); also: GST fusion; listed as Homo sapiens)	ATR (Homo sapiens, UniProt Q13535)	%	1065

* * *

target: ATM kinase (Homo sapiens, UniProt Q13315); construct: The full-length cDNA encoding NH2-terminal, FLAG-tagged wild-type ATM; made in house; host or cells: 293T cells, transient transfection with pcDNA-FLAG-ATMwt, anti-FLAG M2 immunoprecipitate on beads; assay: In vitro kinase assay, ATM with GST-peptide / GST-fusion substrates; format: biochemical; conditions: GST-peptide substrate; relative to the p53ser15 site;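 also: immunoprecipitated ATM incubated with [γ-32P]ATP at 30 °C for 20 min, substrates resolved by SDS-PAGE and radiolabel incorporation quantified by PhosphorImager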
Where no end group is shown, it is not given here.
readout: Relative Phosphorylation (%) ATM

substance	test-target	readout	readout-units	relation-operator	recorded-value
β-ADAPTIN: GST-peptide CRAPEVSQHVYQAY (SEQ ID NO:28), S935 (not fully specified (N-terminus); also: GST fusion; listed as Homo sapiens)	ATM kinase (Homo sapiens, UniProt Q13315)	Relative Phosphorylation (%) ATM	%	=	5
c-ABL: GST-peptide YPGIDLSQVYELLE (SEQ ID NO:23), S446 (not fully specified (N-terminus); also: GST fusion; listed as Homo sapiens)	ATM kinase (Homo sapiens, UniProt Q13315)	Relative Phosphorylation (%) ATM	%	<	1
p120E4F: GST-peptide APEPPVSQELPCSR (SEQ ID NO:31), S355 (not fully specified (N-terminus); also: GST fusion; listed as Homo sapiens)	ATM kinase (Homo sapiens, UniProt Q13315)	Relative Phosphorylation (%) ATM	%	=	11
